Entry source: ChEMBL document CHEMBL5505970

Organism: Homo sapiens
Assay: Selectivity ratio of IC50 for inhibition of mTOR in human HeLa S3 cells to IC50 for inhibition of ATR in human HeLa S3 cells
Type: cell-based
Settings: time 1.0 hrs
Property: Ratio IC50

C[C@@H]1COCCN1c1cc(C(C)(C)C#N)c2cnn(-c3cc[nH]n3)c2n1: 6.6
C[C@@H]1COCCN1c1cc(I)c2cnn(-c3cc[nH]n3)c2n1: 1.6
C[C@@H]1COCCN1c1ccc2cnn(-c3cc[nH]n3)c2n1: 4

Quick note, Ratio IC50 for Nc1nn2cc(F)cnc2c1C(=O)Nc1cncc(F)c1N1CCC(C(=O)N2CCN(C3COC3)CC2)CC1 landed at 27
